System: Adult Nippostrongylus brasiliensis
EXPERIMENTAL DETAILS: In Vitro Assay 5: Nippostrongylus brasiliensis (NIPOBR), acetylcholine esterase readout
Type: cell-based
ASSAY CONTEXT: acetylcholine esterase activity in medium vs negative control, adult worms, read-out: EC50
MEASURED PARAMETER: EC50

Solved entries:
CC(C)c1c(C(=O)NN2CCOc3ccccc32)cnc2c1nnn2-c1cc(F)cc(F)c1F ... > 1 µg/mL
O=C(NN1CCOc2ccccc21)c1sc2c(-c3cc(F)cc(F)c3F)ccnc2c1N1CCOCC1 ... > 1 µg/mL
CC(C)c1c(C(=O)NN2CCOc3ccccc32)n(C)c2c(-c3cc(F)cc(F)c3F)cccc12 ... > 1 µg/mL
Cc1nn(-c2cc(F)cc(F)c2F)c2ncc(C(=O)NN3CCOc4ccccc43)c(C(C)C)c12 ... > 1 µg/mL
CC(C)n1c(C(=O)NN2CCOc3ccccc32)nc2c(-c3cc(F)cc(F)c3F)nccc21 ... > 1 µg/mL

// switching to the query compound
EC50 reading for CC(C)c1c(C(=O)NN2CCOc3ccccc32)[nH]c2c(-c3cc(F)cc(F)c3F)cccc12 : > 1 µg/mL

The measurements presented in this section are drawn from patent US20240059680A1.
